# assayed.target: human thyroid receptor alpha ligand-binding domain (LBD) (Homo sapiens, UniProt P10827)
# Construct: purchased Invitrogen
# Sequence (P10827 163-410 isoform P10827-2 limits assumed, other chains not shown): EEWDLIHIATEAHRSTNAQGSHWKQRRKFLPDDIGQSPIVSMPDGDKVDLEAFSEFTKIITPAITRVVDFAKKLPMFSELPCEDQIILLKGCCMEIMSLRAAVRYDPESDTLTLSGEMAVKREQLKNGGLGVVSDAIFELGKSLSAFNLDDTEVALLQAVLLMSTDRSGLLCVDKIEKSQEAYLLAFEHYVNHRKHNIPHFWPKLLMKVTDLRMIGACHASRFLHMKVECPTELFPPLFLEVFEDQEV
# method.description: TR-FRET thyroid receptor alpha coactivator assay (THR biochemical assay, Assay 1)
# condition: Table 4, THR-alpha, read-out: Activity category Assay 1 (EC50, THR-alpha agonist activity)
property: EC50

Answered examples (3):
Cc1ccc(-c2cc(=O)[nH]nc2Oc2c(Cl)cc(-n3nc(N)c(=O)[nH]c3=O)cc2Cl)cc1C :: 0.25 to 1 µM
CC(C)c1cc(Oc2c(Cl)cc(-n3nc(CS(C)(=O)=O)c(=O)[nH]c3=O)cc2Cl)n[nH]c1=O :: > 25 µM
Nc1nn(-c2cc(Cl)c(Oc3n[nH]c(=O)cc3-c3cccc(Cl)c3)c(Cl)c2)c(=O)[nH]c1=O :: > 25 µM

Consider now this further compound.
Ask: Could you share which EC50 value was measured for Nc1nn(-c2cc(Cl)c(Oc3n[nH]c(=O)cc3-c3ccc4nnccc4c3)c(Cl)c2)c(=O)[nH]c1=O ?
Result: > 25 µM

---

# assayed.target: human thyroid receptor beta ligand-binding domain (LBD) (Homo sapiens, UniProt P10828)
# Construct: purchased Invitrogen
# Sequence (P10828 217-461 limits assumed): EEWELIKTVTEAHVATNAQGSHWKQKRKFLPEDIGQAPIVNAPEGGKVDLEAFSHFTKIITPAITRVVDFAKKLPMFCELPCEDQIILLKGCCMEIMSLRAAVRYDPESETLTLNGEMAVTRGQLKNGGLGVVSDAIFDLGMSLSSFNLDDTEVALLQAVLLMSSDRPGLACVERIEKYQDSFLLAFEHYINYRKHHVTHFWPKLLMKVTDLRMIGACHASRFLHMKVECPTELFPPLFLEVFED
# method.description: TR-FRET thyroid receptor beta coactivator assay (THR biochemical assay, Assay 1)
# condition: Table 5; Assay 1; THRβ; read-out: Activity category Assay 1 THRβ (Emax)
property: Emax

CC1(C)CN(c2cc(Oc3c(Cl)cc(-n4nc(N)c(=O)[nH]c4=O)cc3Cl)n[nH]c2=O)C1 :: < 50%
Cc1cc(-n2ncc(=O)[nH]c2=O)cc(C)c1Cc1ccc2[nH]cc(C(C)C)c2n1 :: 50 to 75%
CC(c1ccccc1)c1cc(Oc2c(Cl)cc(-n3nc(N)c(=O)[nH]c3=O)cc2Cl)n[nH]c1=O (single isomer, unassigned) :: < 50%

Ask: Any idea what Emax came out for Cc1cc(-n2nc(C#N)c(=O)[nH]c2=O)cc(C)c1Cc1ccc2[nH]nc(C(C)C)c2c1 on human thyroid receptor beta ligand-binding domain (LBD) (Homo sapiens, UniProt P10828)?
Result: < 50%

Ask: Requested read-out Emax, target or system human thyroid receptor beta ligand-binding domain (LBD) (Homo sapiens, UniProt P10828), entry Nc1nn(-c2cc(Cl)c(Oc3ccc4c(c3)C3(CCCCC3)C(=O)N4)c(Cl)c2)c(=O)[nH]c1=O
Result: < 50%

Ask: What reported Emax corresponds to Cc1cncc(-c2cc(=O)[nH]nc2Oc2c(Cl)cc(-n3ncc(=O)[nH]c3=O)cc2Cl)c1 on human thyroid receptor beta ligand-binding domain (LBD) (Homo sapiens, UniProt P10828)?
Result: < 50%

Ask: Give Emax (human thyroid receptor beta ligand-binding domain (LBD) (Homo sapiens, UniProt P10828)) of the following compound: CC(C)c1c[nH]c2ccc(Oc3c(Cl)cc(-n4nc(N)c(=O)[nH]c4=O)cc3Cl)cc12
Result: 50 to 75%

---

The entries below are paired with their reported pEC50.
# assayed.target: human thyroid receptor beta ligand-binding domain (LBD) (Homo sapiens)
# method.description: TR-FRET thyroid receptor beta coactivator assay (THR biochemical assay, Assay 1)
# condition: THR-beta, TR-FRET coactivator assay; read-out: Activity category Assay 1 (EC50, THR-beta agonist)
pEC50: −log10 of the molar value.

Answered cases to consult:
Cc1cc(-n2nc(C#N)c(=O)[nH]c2=O)cc(C)c1Cc1ccc2[nH]cc(C(C)C)c2c1 [Compound 3] :: > 7.30
Nc1nn(-c2cc(Cl)c(Oc3n[nH]c(=O)cc3-c3ccc4nnccc4c3)c(Cl)c2)c(=O)[nH]c1=O [Compound 109] :: < 4.60
Nc1nn(-c2cc(Cl)c(Oc3n[nH]c(=O)cc3-c3ccc4ccnn4c3)c(Cl)c2)c(=O)[nH]c1=O [Compound 123] :: < 4.60
Nc1nn(-c2cc(Cl)c(Oc3cc(-c4ccc5ccnnc5c4)c(=O)[nH]n3)c(Cl)c2)c(=O)[nH]c1=O [Compound 110] :: < 4.60

Ask: Dear colleague, I am looking for the recorded pEC50 of the following compound: CC(c1cc(Oc2c(Cl)cc(-n3nc(N)c(=O)[nH]c3=O)cc2Cl)n[nH]c1=O)C1CC(F)(F)C1 (single isomer, unassigned) [Compound 61-A]
Result: > 7.30

Ask: Which pEC50 value belongs to C[C@H](c1cc(Oc2c(Cl)cc(-n3nc(N)c(=O)[nH]c3=O)cc2Cl)n[nH]c1=O)C1CCC1 [Compound 168] ?
Result: > 7.30

Ask: Look up pEC50: Cc1cc(-n2nc(N)c(=O)[nH]c2=O)cc(C)c1Oc1cc(C(C)C)c(=O)[nH]n1 [Compound 38]
Result: 6.00 to 6.60
